experiment: Nalbuphine solubility in different acids (overnight stirring, HPLC); type: physicochemical; conditions: succinic acid solution, aqueous buffer, thermodynamic from solid, Nalbuphine base Solubility, in Succinic acid, approx. 0.5 mmol/mL acid
READOUT NAME: solubility

Prompt: For `Oc1ccc2c3c1O[C@H]1[C@@H](O)CC[C@@]4(O)[C@@H](C2)N(CC2CCC2)CC[C@]314` , what is its reported solubility?
Response: 480 mM

###

test: Nalbuphine solubility in different acids (overnight stirring, HPLC); format: physicochemical; conditions: phosphoric acid solution, aqueous buffer, thermodynamic from solid, Nalbuphine base Solubility, in Phosphoric acid, approx. 0.5 mmol/mL acid
READOUT NAME: solubility (mM)
API: value field is a number in mM; no unit string.

Prompt: Sample Oc1ccc2c3c1O[C@H]1[C@@H](O)CC[C@@]4(O)[C@@H](C2)N(CC2CCC2)CC[C@]314 [Nalbuphine base] — what was its solubility?
Response: 530

###

assay: Nalbuphine solubility in different acids (overnight stirring, HPLC); assay type: physicochemical; conditions: citric acid solution, aqueous buffer, thermodynamic from solid, Nalbuphine base Solubility, in Citric acid, approx. 0.5 mmol/mL acid
READOUT NAME: solubility

Prompt: Entry `Oc1ccc2c3c1O[C@H]1[C@@H](O)CC[C@@]4(O)[C@@H](C2)N(CC2CCC2)CC[C@]314` : reported solubility = ?
Response: > 1000 mM

###

assay: Nalbuphine solubility in different acids (overnight stirring, HPLC); format: physicochemical; settings: acetic acid solution, aqueous buffer, thermodynamic from solid, Nalbuphine base Solubility, in Acetic acid, approx. 0.5 mmol/mL acid
READOUT NAME: solubility (mM)
Numeric answer only, unit mM assumed.

Prompt: Dear colleague, I am looking for the recorded solubility of the following compound: `Oc1ccc2c3c1O[C@H]1[C@@H](O)CC[C@@]4(O)[C@@H](C2)N(CC2CCC2)CC[C@]314`
Response: 420
